Data provenance is ChEMBL document CHEMBL3259813.

- Tested on: A549
- ASSAY NOTES: Antiproliferative activity against human A549 cells after 48 hrs by MTT assay
- EXPERIMENTAL CONTEXT: A549, 48 h
# thresholds on GI50 define classes: LOW: < 40 µM; MID: ≥ 40 µM and < 60 µM; HIGH: ≥ 60 µM

| ENTRY SMILES | CLASSIFICATION |
| --- | --- |
| COc1ccc(/C=C2/C(=O)Nc3ccc(Cl)cc32)c(-c2ccc(C#N)cc2)c1 | HIGH |

Please indicate the class for `CCCOc1ccc(/C=C2/C(=O)Nc3ccccc32)c(OCCC)c1` based on its GI50.
MID

State the band of `COc1ccc(/C=C2/C(=O)Nc3ccc(Cl)cc32)c(OC)c1`
HIGH
